- System: HCMV intact particles AD169 (Human cytomegalovirus AD169)
- protocol: cell_activity
- condition label: 2'-NH2 on all pyrimidines; plaque formation, 1e5 PFU/ml; viral yield IC50 18±4 nM
measured attribute: pIC50
pIC50 is defined as minus the log10 of a concentration measured in mol/L.

pIC50 lookup needed for GGGAGACAAGAAUAAACGGUCAAUGUGGGUCGUGUUAAGCUUCGGGCUUCGCGCAAAUCUGGGUUCGACAUGAGGG [L66] , thanks.
7.82

---

- Test system: HCMV intact particles AD169 (Human cytomegalovirus AD169)
- protocol: cell_activity
- condition label: 2'-NH2 on all pyrimidines; plaque formation, 1e5 PFU/ml; viral yield IC50 35±7 nM
measured attribute: pIC50
Please keep in mind that pIC50 is minus log10 of the molar concentration; only the number is needed.

Return reported pIC50; argument: GGGAGACAAGAAUAAACGGUCAACUCGAGCCACCCCAUAACCCUCAAUACUCCAGGGAUUGGGUUCGACAUGAGGG [L19]
7.46
